experiment-description: Inhibition of Wnt/beta-catenin transcriptional activity in human HT-29 cells assessed as depletion of beta-catenin level by TCF luciferase promoter reporter assay
Assay type: cell-based
experimental-context: Homo sapiens, HT-29
value-type: IC50 (nM)
Give the value, in units of nM, as a plain number.

Recorded IC50, per entry:
- chemical-smiles: "O=S(=O)(c1ccc2c(c1)C(=NO)c1cc(S(=O)(=O)N3CCCCCC3)ccc1C2=NO)N1CCCCCC1"
  value-units: "nM"
  IC50: 1800
- chemical-smiles: "O=S(=O)(c1ccc2c(c1)C(=NO)c1cc(S(=O)(=O)N3CCCCC3)ccc1-2)N1CCCCC1"
  value-units: "nM"
  IC50: 990
- chemical-smiles: "O=S(=O)(c1ccc2c(c1)C(=NO)c1cc(S(=O)(=O)N3CCCCCCC3)ccc1C2=NO)N1CCCCCCC1"
  value-units: "nM"
  IC50: 300
- chemical-smiles: "CC1CCN(S(=O)(=O)c2ccc3c(c2)C(=NO)c2cc(S(=O)(=O)N4CCC(C)CC4)ccc2-3)CC1"
  value-units: "nM"
  IC50: 740

Query: Param item = `O=S(=O)(c1ccc2c(c1)C(=NO)c1cc(S(=O)(=O)N3CCCCCCCCCCC3)ccc1C2=NO)N1CCCCCCCCCCC1` ; retrieve measured IC50.
Reply: 5000
